Provide the reported Plant response rating, Rice of each item.
- System: rice
- protocol-notes: Test B flooded paddy test
- Assay type: in vivo, Oryza sativa
- test-context: 250 g ai/ha, Flood; scale of 0 to 100 where 0 is no effect and 100 is complete control

Input line: Return the recorded Plant response rating, Rice value; entry: O=C1NCC(c2ccc(Cl)c(F)c2)C1C(=O)Nc1cccc(F)c1F (centres unmarked) [Compound 52]
Output line: 25

Input line: Return the recorded Plant response rating, Rice value; entry: O=C1NCC(c2ccc(C(F)(F)F)cc2)C1C(=O)Nc1cccc(F)c1F (centres unmarked) [Compound 80]
Output line: 0

Input line: Return the recorded Plant response rating, Rice value; entry: COc1ccc(C2CNC(=O)C2C(=O)Nc2ccccc2C(F)(F)F)cc1F (racemic) [Compound 199]
Output line: 0

Input line: Return the recorded Plant response rating, Rice value; entry: O=C1NCC(c2ccc(Cl)c(Cl)c2)C1C(=O)Nc1ccccc1OC(F)(F)F (racemic) [Compound 32]
Output line: 0

Input line: Return the recorded Plant response rating, Rice value; entry: O=C1NCC(c2ccc(Cl)c(Cl)c2)C1C(=O)Nc1ccccc1[N+](=O)[O-] (centres unmarked) [Compound 39]
Output line: 0

Input line: Return the recorded Plant response rating, Rice value; entry: O=C1NCC(c2ccc(F)c(F)c2)C1C(=O)Nc1ccccn1 (centres unmarked) [Compound 45]
Output line: 20

Input line: Return the recorded Plant response rating, Rice value; entry: O=C1NCC(c2ccc3c(c2)OC(F)(F)O3)C1C(=O)Nc1ccccc1C(F)(F)F (racemic) [Compound 75]
Output line: 0

Input line: Return the recorded Plant response rating, Rice value; entry: Cc1ccccc1NC(=O)C1C(=O)NCC1c1ccc(Cl)c(Cl)c1 (centres unmarked) [Compound 40]
Output line: 0

Input line: Return the recorded Plant response rating, Rice value; entry: O=C1NCC(c2ccc(F)c(F)c2)C1C(=O)Nc1cccc[n+]1[O-] (centres unmarked) [Compound 47]
Output line: 0

Input line: Return the recorded Plant response rating, Rice value; entry: O=C1NCC(c2ccc(F)c(F)c2)C1C(=O)Nc1ccccc1OC(F)(F)F (centres unmarked) [Compound 54]
Output line: 20

Input line: Return the recorded Plant response rating, Rice value; entry: O=C1NCC(c2ccc3c(c2)OC(F)(F)O3)C1C(=O)Nc1ccccc1F (centres unmarked) [Compound 63]
Output line: 0

---

- Tested on: corn
- protocol-notes: Test A pre-/postemergence herbicide test
- Type: in vivo, Zea mays
- test-context: Postemergence, 500 g ai/ha; 0 to 100 scale (0 no effect, 100 complete control)
Provide the reported Plant response rating, Corn of each item.
No unit in the answer, please; the number alone is enough.

Input line: Return the recorded Plant response rating, Corn value; entry: O=C1NCC(c2ccc(F)c(F)c2)C1C(=O)Nc1ccccc1OC(F)(F)F (stereo not drawn)
Output line: 0

Input line: Return the recorded Plant response rating, Corn value; entry: CC(C)c1cccc(C2CNC(=O)C2C(=O)Nc2ccccc2C(F)(F)F)c1 (stereo not drawn)
Output line: 0

Input line: Return the recorded Plant response rating, Corn value; entry: O=C1NCC(c2ccc(Br)c(Br)c2)C1C(=O)Nc1ccc(F)c(F)c1F (stereo not drawn)
Output line: 40

Input line: Return the recorded Plant response rating, Corn value; entry: Cc1cccc(C2CN(C(=O)OC(C)(C)C)C(=O)C2C(=O)Nc2ccccc2F)c1 (stereo not drawn)
Output line: 0

Input line: Return the recorded Plant response rating, Corn value; entry: O=C1NCC(c2ccc3ccccc3c2)C1C(=O)Nc1ccccc1C(F)(F)F (racemic)
Output line: 20

Input line: Return the recorded Plant response rating, Corn value; entry: O=C1NCC(c2ccc(F)cc2)C1C(=O)Nc1ccc(F)c(F)c1F (racemic)
Output line: 80

---

Provide the reported Plant response rating, Nutsedge, Yellow of each item.
- System: nutsedge, yellow
- protocol-notes: Test E preemergence herbicide test
- Format: in vivo, Cyperus esculentus
- Parameters: key: 0 = no effect, 100 = complete control
- test-context: 62 g ai/ha
No unit in the answer, please; the number alone is enough.

Input line: Return the recorded Plant response rating, Nutsedge, Yellow value; entry: O=C1NCC(c2ccc(F)c(F)c2)C1C(=O)Nc1cccc(F)c1F (centres unmarked) [Compound 17]
Output line: 0

Input line: Return the recorded Plant response rating, Nutsedge, Yellow value; entry: O=C1NC[C@H](c2cccc(C(F)(F)F)c2)[C@H]1C(=O)Nc1ccccc1F [Compound 204]
Output line: 0

Input line: Return the recorded Plant response rating, Nutsedge, Yellow value; entry: O=C1NC[C@H](c2cccc(C(F)(F)F)c2)[C@H]1C(=O)Nc1cccc(F)c1F [Compound 206]
Output line: 15

Input line: Return the recorded Plant response rating, Nutsedge, Yellow value; entry: O=C1NCC(c2ccc(C(F)(F)F)cc2)C1C(=O)Nc1cccc(F)c1F (centres unmarked) [Compound 80]
Output line: 0

Input line: Return the recorded Plant response rating, Nutsedge, Yellow value; entry: O=C1NCC(c2ccc(OC(F)F)cc2)C1C(=O)Nc1cccc(F)c1F (racemic) [Compound 350]
Output line: 0

---

Provide the reported Plant response rating, Galium of each item.
- Test system: galium
- protocol-notes: Test C pre-/postemergence herbicide test
- Format: in vivo, Galium aparine
- test-context: Preemergence, 62 g ai/ha; scale 0 to 100
No unit in the answer, please; the number alone is enough.

Input line: Return the recorded Plant response rating, Galium value; entry: O=C1NCCC1C(=O)N(c1ccc(F)c(F)c1)c1ccccc1F (centres unmarked)
Output line: 5

Input line: Return the recorded Plant response rating, Galium value; entry: O=C1NCC(c2ccc(F)c(F)c2)C1C(=O)Nc1cccc(F)c1F (centres unmarked)
Output line: 70

Input line: Return the recorded Plant response rating, Galium value; entry: O=C1NCC(c2ccc(F)c(Cl)c2)C1C(=O)Nc1ccccc1F (centres unmarked)
Output line: 0

Input line: Return the recorded Plant response rating, Galium value; entry: O=C1NCC(c2cc(F)c(F)c(F)c2)C1C(=O)Nc1cccc(F)c1F (centres unmarked)
Output line: 30

Input line: Return the recorded Plant response rating, Galium value; entry: O=C1NCC(c2ccc(C(F)(F)F)cc2)C1C(=O)Nc1ccccc1F (centres unmarked)
Output line: 5

---

- Tested on: wheat
- protocol-notes: Test A pre-/postemergence herbicide test
- Type: in vivo, Triticum aestivum
- test-context: Postemergence, 500 g ai/ha; 0 to 100 scale (0 no effect, 100 complete control)
assay-readout: Plant response rating, Wheat
No unit in the answer, please; the number alone is enough.

Input line: Return the recorded Plant response rating, Wheat value; entry: CN1CC(c2ccc(F)c(F)c2)C(C(=O)Nc2cccc(F)c2F)C1=O (stereo not drawn)
Output line: 60

Input line: Return the recorded Plant response rating, Wheat value; entry: CN1CC(c2ccc(F)cc2)C(C(=O)Nc2ccccc2F)C1=O (stereo not drawn)
Output line: 20

Input line: Return the recorded Plant response rating, Wheat value; entry: O=C1NCC(c2ccc(F)c(F)c2)C1C(=O)Nc1ccccc1C(F)(F)F (racemic)
Output line: 0

Input line: Return the recorded Plant response rating, Wheat value; entry: O=C1NCC(c2cccc(Br)c2)C1C(=O)Nc1ccc(F)c(F)c1F (stereo not drawn)
Output line: 50

Input line: Return the recorded Plant response rating, Wheat value; entry: CC1(C)NC(=O)C(C(=O)Nc2ccccc2F)C1c1ccc(F)c(F)c1 (stereo not drawn)
Output line: 0

Input line: Return the recorded Plant response rating, Wheat value; entry: O=C1NCC(c2ccc(Cl)o2)C1C(=O)Nc1ccccc1F (stereo not drawn)
Output line: 0

Input line: Return the recorded Plant response rating, Wheat value; entry: O=C1NCC(c2cnn(CC(F)(F)F)c2)C1C(=O)Nc1ccccc1F (stereo not drawn)
Output line: 0

Input line: Return the recorded Plant response rating, Wheat value; entry: O=C1NCC(c2cccc(Oc3ccccc3)c2)C1C(=O)Nc1ccc(F)cc1F (stereo not drawn)
Output line: 0

Input line: Return the recorded Plant response rating, Wheat value; entry: O=C1NCC(c2ccc(Cl)c(Cl)c2)C1C(=O)Nc1ccccc1OC(F)(F)F (racemic)
Output line: 0

---

- Test system: ragweed
- protocol-notes: Test C pre-/postemergence herbicide test
- Type: in vivo, Ambrosia elatior
- test-context: Preemergence, 125 g ai/ha; scale 0 to 100
assay-readout: Plant response rating, Ragweed
No unit in the answer, please; the number alone is enough.

Input line: Return the recorded Plant response rating, Ragweed value; entry: O=C1NCC(c2cccc(Br)c2)C1C(=O)Nc1ccc(F)c(F)c1F (stereo not shown)
Output line: 5

Input line: Return the recorded Plant response rating, Ragweed value; entry: O=C1NCC(c2ccc(F)c(F)c2)C1C(=O)Nc1ccc(F)c(F)c1F (stereo not shown)
Output line: 35

Input line: Return the recorded Plant response rating, Ragweed value; entry: O=C1NCC(c2cccc(OC(F)F)c2)C1C(=O)Nc1ccccc1F (stereo not shown)
Output line: 40

Input line: Return the recorded Plant response rating, Ragweed value; entry: O=C1NCC(c2cccc(C(F)(F)F)c2)C1C(=O)Nc1ccc(F)c(F)c1F (stereo not shown)
Output line: 15
